Biological target: RSV F on RSV subtype A virus (mKate-RSV A2) (respiratory syncytial virus A2, UniProt P03420 26-574)
Test: cell-based or functional assay
Each entry below carries its recorded Neut IC50 subtype A.
Number only, in µg/mL; omit the unit.

Recorded Neut IC50 subtype A, per entry:
INSERT INTO results (binder, measured_endpoint, obs_value) VALUES
  ('ADI-19475 (antibody, V domains shown, full-length IgG) VH: EVQLLESGAEVKKPGASVKVTCKASGYTFTHFGINWVRQAPGQGLEWLGWISAYNGNTNYVQKIQGRVTMTTDTSTNTAYMELRSLRSDDTAVYYCARGPPVEAAGTFDYWGQGTLVTVSS VL: DIVLTQSPLSLPVTLGQPASISCRSSQSLVYSDGNTYLTWFQQRPGQSPRRLIYKVSNRDSGVPDRFSGSGSGTDFTLQISRVEAEDVGVYYCMQGTHWPFTFGPGTKVEIK', 'Neut IC50 subtype A', 0.05),
  ('ADI-19425 (antibody, V domains shown, full-length IgG; also called Ab 140) VH: EVQLVESGGGLVKPGGSLRLSCAASGFTFSSYSMNWVRQAPGKGLEWVSSISSSSSYIYYADSVKGRFTISRDNAKNSLYLQMNSLRAEDTAVYYCARLGYCSGGSCHFDYWGQGTLVTVSS VL: QPVLTQPPSVSGAPGQRVTISCTGSSSNIGAGYDVHWYQQLPGTAPKLLIYGNSNRPSGVPDRFSGSKSGTSASLAITGLQAEDEADYYCQSYDSSLSGFYVFGTGTKLTVL', 'Neut IC50 subtype A', 0.02),
  ('ADI-24828 (antibody, V domains shown, full-length IgG; also called Ab 390) VH: EVQLVESGGGLVKPGGSLRLACAASGFSFRSYRMNWVRQAPGKGLEWVSSISSSSSYIDYADSVKGRFTISRDNAKNTVYLQVNSLRAEDTAVYYCARDGRTIFGVVIDYWGQGTLVTVSS VL: QSVLTQPPSVSGAPGQRVTISCTGSSSNIGAGYDVHWYQQLPGTAPKLLIYGNNNRPSGVPDRFSGSKSGTSASLVITGLQAEDEADYYCQSYDSSLSVVFGGGTKLTVL', 'Neut IC50 subtype A', 0.02),
  ('ADI-22774 (antibody, V domains shown, full-length IgG) VH: EVQLLESGGGLVKPGGSLRLSCAASGFTFSSYSMNWVRQAPGKGLEWVSSISSSSSYIYYADSVKGRFTISRDNAKNSLYLQMNSLRAEDTAVYYCAREGASGYNYRYYFDYWGQGTLVTVSS VL: QSVLTQPPSVSGAPGQRVTISCTGSSSNIGAGYDVHWYQQFPGAAPKLLIYGNNNRPSGVPDRFSGSKSGTSASLAITGLQADDEADYYCQSYDSSLSGYVVFGGGTKLTVL', 'Neut IC50 subtype A', 0.29),
  ('ADI-19494 (antibody, V domains shown, full-length IgG) VH: QVQLVQSGAEVKKPGSSVKVSCKASGGTFSSYVISWVRQAPGQGLEWMGGIIPIFGTTYYAQKFQDRVTITTDESTSTAYMELSSLRSEDTAVYYCARDLRYRYNAYDGADAFDIWGQGTTVTVSS VL: QSALTQPASVSGSPGQSITISCTGTSSDVGGYNYVSWYQQHPGKAPKLMIFEVSNRPSGVSNRFSGSKSGNTASLTISGLQAEDEADYYCTSYTKSNSVVFGGGTKLTVL', 'Neut IC50 subtype A', 0.86);

So for ADI-19420 (antibody, V domains shown, full-length IgG) VH: EVQLLESGGGLVKPGGSLRLSCAASGFTFSSYSMNWVRQAPGKGLEWVSSISSSSSYIYYADSVKGRFTISRDNAKNSLYLQMNSLRAEDTAVYYCARVGWGYSYGYWFDPWGQGTLVTVSS VL: QSVLTQPPSVSGAPGQRVTISCTGSSSNIGAGYDVHWYQQLPGTAPKLLIYGNSNRPSGVPDRFSGSKSGTSASLAITGLQAEDEADYYCQSYDSSLSGVVFGGGTKLTVL , the logged Neut IC50 subtype A turned out to be 0.55

Item: ADI-19459 (antibody, V domains shown, full-length IgG) VH: QVQLVESGGGLVQPGGSLRLSCAASGFTVSSNYMSWVRQAPGKGLEWVSVIYSGGSTYYADSVKGRFTISRDNSKNTLYLQMNSLRAEDTAVYYCAREALGMDHWYFDLWGRGTLVTVSS VL: SYELMQPPSVSVAPGKTARITCGGNNIGSKSVHWYQQKPGQAPVLVVYDDSDRPSGIPERFSGSNSGNTATLTISRVEAGDEADYYCQVWDSSSDHPVFGGGTKVTVL | Neut IC50 subtype A: 0.05

ADI-14335 (antibody, V domains shown, full-length IgG; also called Ab 3) VH: EVQLVESGGGLVQPGRSLRLSCTASGFTFGDYAMSWVRQAPGKGLEWVGFIRSNAFGGTSEYAASVKGRFTISRDDSKSIAYLQMNSLKTEDTAVYYCTRDGIHDYGDSYYYYGMDVWGQGTTVTVSS VL: DIQLTQSPSSLSASVGDRVTITCRASQTVTTYLNWYQQKPGKAPKLLIYGASSLQSGVPSRFSGSGSGTDFTLTINSLQPEDFATYYCQQTYSTVTFGPGTKVEIK yielded Neut IC50 subtype A of 0.32

For this binder ( ADI-19510 (antibody, V domains shown, full-length IgG; also called Ab 210) VH: EVQLVESGGGLVKPGGSLRLSCAASGFSLSSYYMNWVRQAPGKGLEWVSSISSSSTYINYADSVKGRFTISRDNAKNSLYLQMNSLRAEDTAVYYCARGGSITIFGVVFDSWGQGTLVTVSS VL: SYELTQPPSVSGAPGQRVTISCTGTSSNIGAGYDVHWYQQLPGTAPKLLIYVNSNRPSGVPDRFSGSKSGTSASLAITGLQAEDEADYYCQSYDSSLSGGVFGTGTKVTVL ), measured Neut IC50 subtype A is 0.16

Lab book: Neut IC50 subtype A of ADI-14367 (antibody, V domains shown, full-length IgG; also called Ab 35) VH: EVQLLESGGGLVQPGGSLRLSCAASGFTFGSYDMNWVRQAPGKGLEWVSGISGSGDATYYADSVKGRFTISRDNSKNMLYLQMNSLSAEDMAVYYCARDRAFTMKYNSNWYKIYWGQGTMVTVSS VL: EIVLTQSPGTLSLSPGERATLSCRASQSVTSSYLAWYQQKPGQAPRLLIYGAFSRATGIPDRFSGSGSGTDFTLTISRLEPEDFAVYYCHHYGTSRWTFGQGTKVDIK noted as 3.94
